- Test: Growth of human H1299 cells at 1 uM after 48 hrs by MTT assay
- Assay Context: NCI-H1299, 48 h
Measure Name: growth, % of control at 1 µM
Form field: result (number plus unit)

Solved cases (4 shown):
1) Cc1cccc(C(=O)Nc2c(NC(=O)CCl)ccc3c2C(=O)c2ccccc2C3=O)c1 ... 72%
2) O=C(CCl)Nc1ccc2c(c1NC(=O)c1ccccc1C(F)(F)F)C(=O)c1ccccc1C2=O ... 93%
3) Cc1ccc(C(=O)Nc2c(NC(=O)CN(C)C)ccc3c2C(=O)c2ccccc2C3=O)cc1 ... 106%
4) O=C(CCl)Nc1ccc2c(c1NC(=O)c1ccco1)C(=O)c1ccccc1C2=O ... 80%

GET /value?item= `Cc1cc(C(=O)Nc2c(NC(=O)CCl)ccc3c2C(=O)c2ccccc2C3=O)c(C)o1` &field=growth, % of control at 1 µM returns 96%

---

- Assayed Target: Telomerase reverse transcriptase (Homo sapiens)
- Test: Residual activity of human TERT in H1299 cells at 1 uM after 24 hrs by SEAP reporter gene assay
Use 80% as the dividing line for residual activity, with the line itself on the True side and lower values as False.

Check out these entries, answers already filled in.
1) Cc1ccc(C(=O)Nc2c(NC(=O)CN3CCN(c4ccccc4)CC3)ccc3c2C(=O)c2ccccc2C3=O)cc1 ... True
2) Cc1ccccc1C(=O)Nc1c(NC(=O)CCl)ccc2c1C(=O)c1ccccc1C2=O ... True
3) O=C(CCl)Nc1ccc2c(c1NC(=O)c1ccco1)C(=O)c1ccccc1C2=O ... True

Evaluate `O=C(CCl)Nc1ccc2c(c1NC(=O)c1ccc(C(F)(F)F)cc1)C(=O)c1ccccc1C2=O` : residual activity at minimum 80%?
True

Evaluate `O=C(CCl)Nc1ccc2c(c1NC(=O)c1ccc(F)cc1)C(=O)c1ccccc1C2=O` : residual activity at minimum 80%?
False

Evaluate `Cc1ccc(C(=O)Nc2c(NC(=O)CN3CCN(CCO)CC3)ccc3c2C(=O)c2ccccc2C3=O)cc1` : residual activity at minimum 80%?
False

---

- Assayed Target: Telomerase reverse transcriptase (Homo sapiens) (UniProt O14746)
- Sequence (O14746 whole entry): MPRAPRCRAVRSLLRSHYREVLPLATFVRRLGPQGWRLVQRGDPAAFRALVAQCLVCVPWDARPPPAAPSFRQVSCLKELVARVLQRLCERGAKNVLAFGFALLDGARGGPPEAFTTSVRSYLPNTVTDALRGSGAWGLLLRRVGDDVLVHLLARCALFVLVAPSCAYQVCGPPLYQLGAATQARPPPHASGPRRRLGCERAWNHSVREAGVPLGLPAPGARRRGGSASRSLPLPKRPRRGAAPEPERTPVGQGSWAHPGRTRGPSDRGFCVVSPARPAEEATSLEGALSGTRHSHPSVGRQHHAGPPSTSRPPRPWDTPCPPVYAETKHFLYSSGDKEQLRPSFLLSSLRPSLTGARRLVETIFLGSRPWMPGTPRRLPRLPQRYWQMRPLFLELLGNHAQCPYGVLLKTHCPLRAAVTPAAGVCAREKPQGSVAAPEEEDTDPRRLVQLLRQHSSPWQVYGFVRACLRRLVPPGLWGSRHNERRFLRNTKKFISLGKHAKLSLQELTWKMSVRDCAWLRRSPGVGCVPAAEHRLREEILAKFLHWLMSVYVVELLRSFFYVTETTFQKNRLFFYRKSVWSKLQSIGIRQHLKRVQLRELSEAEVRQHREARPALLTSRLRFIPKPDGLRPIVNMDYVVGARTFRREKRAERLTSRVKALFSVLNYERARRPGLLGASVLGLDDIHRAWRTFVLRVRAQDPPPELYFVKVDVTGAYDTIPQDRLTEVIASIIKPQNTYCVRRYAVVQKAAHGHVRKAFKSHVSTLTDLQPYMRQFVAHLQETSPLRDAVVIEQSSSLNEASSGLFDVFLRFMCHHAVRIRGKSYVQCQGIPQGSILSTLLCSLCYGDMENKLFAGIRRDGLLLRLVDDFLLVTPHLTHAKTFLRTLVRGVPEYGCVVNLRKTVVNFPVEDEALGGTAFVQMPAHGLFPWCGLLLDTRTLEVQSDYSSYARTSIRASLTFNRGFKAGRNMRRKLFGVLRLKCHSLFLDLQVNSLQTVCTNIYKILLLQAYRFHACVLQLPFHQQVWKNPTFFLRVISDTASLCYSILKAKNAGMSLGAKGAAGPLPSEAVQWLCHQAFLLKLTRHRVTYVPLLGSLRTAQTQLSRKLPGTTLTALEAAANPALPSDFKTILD
- Test: Residual activity of human TERT in H1299 cells at 1 uM after 24 hrs by SEAP reporter gene assay
Measure Name: residual activity (%)
Express your answer in %, writing the number without its unit.

Solved cases (2 shown):
1. O=C(CCl)Nc1ccc2c(c1NC(=O)c1ccc(Cl)cc1)C(=O)c1ccccc1C2=O ... 98
2. O=C(CCl)Nc1ccc2c(c1NC(=O)CCCl)C(=O)c1ccccc1C2=O ... 113

GET /value?item= `Cc1ccc(C(=O)Nc2c(NC(=O)CN3CCN(C)CC3)ccc3c2C(=O)c2ccccc2C3=O)cc1` &field=residual activity returns 78

GET /value?item= `Cc1ccc(C(=O)Nc2c(NC(=O)CN(C)CCc3ccccn3)ccc3c2C(=O)c2ccccc2C3=O)cc1` &field=residual activity returns 94

GET /value?item= `Cc1ccc(C(=O)Nc2c(NC(=O)CN3CCSCC3)ccc3c2C(=O)c2ccccc2C3=O)cc1` &field=residual activity returns 88

---

- System: MOLT-4
- Test: Cytotoxicity against human MOLT4 cells assessed as cellular growth at 10 uM
- Type: functional
Recorded Activity by entry
Express your answer in %, writing the number without its unit.

Solved cases (4 shown):
1) O=C(CCl)Nc1ccc2c(c1NC(=O)Cc1ccccc1)C(=O)c1ccccc1C2=O ... 11.4
2) Cc1ccc(C(=O)Nc2c(NC(=O)CN3CCCC3)ccc3c2C(=O)c2ccccc2C3=O)cc1 ... 48.2
3) Cc1ccc(C(=O)Nc2ccc3c(c2NC(=O)c2ccc(C)cc2)C(=O)c2ccccc2C3=O)cc1 ... 89.63
4) Cc1ccc(C(=O)Nc2c(NC(=O)CN3CCN(C)CC3)ccc3c2C(=O)c2ccccc2C3=O)cc1 ... 26.04

--- query ---
GET /value?item= `Cc1ccc(C(=O)Nc2c(NC(=O)CCl)ccc3c2C(=O)c2ccccc2C3=O)cc1` &field=Activity returns -23.17
